These measurements were taken from patent US20260201064A1.

Target: T1, recombinant human ASM protein (human, UniProt P17405 47-630)
T1 construct: Recombinant human ASM in solution; also called acid sphingomyelinase (ASM) protein
T1 sequence: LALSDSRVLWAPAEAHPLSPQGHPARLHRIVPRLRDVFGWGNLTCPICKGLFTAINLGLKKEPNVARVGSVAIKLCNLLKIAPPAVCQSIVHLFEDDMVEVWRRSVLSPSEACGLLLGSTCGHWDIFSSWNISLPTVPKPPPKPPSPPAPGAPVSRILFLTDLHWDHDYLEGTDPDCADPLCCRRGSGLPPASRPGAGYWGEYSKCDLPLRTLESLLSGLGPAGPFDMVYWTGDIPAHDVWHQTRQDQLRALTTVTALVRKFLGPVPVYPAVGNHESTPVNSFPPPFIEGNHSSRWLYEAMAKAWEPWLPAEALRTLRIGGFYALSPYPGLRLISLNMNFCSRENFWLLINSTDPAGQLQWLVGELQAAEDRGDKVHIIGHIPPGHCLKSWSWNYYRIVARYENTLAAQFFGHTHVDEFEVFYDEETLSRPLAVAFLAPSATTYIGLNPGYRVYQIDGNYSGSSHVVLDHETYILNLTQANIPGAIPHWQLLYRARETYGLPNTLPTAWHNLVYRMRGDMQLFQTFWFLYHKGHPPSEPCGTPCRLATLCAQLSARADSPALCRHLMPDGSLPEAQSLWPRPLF
Assay: BLI (Octet), antibody on AHC sensor
Hi there, I'd appreciate the recorded pKd for every entry that follows.
Reminder that pKd is minus the log10 of a molar concentration.

Prompt line: Using the record for #9104a-A3 (antibody, human IgG4 S228P, lambda, V domains shown, VH of #9104v-H13 with VL of #9104v-L20; full-length IgG, lambda) VH: EVQLLESGGGLVQPGGSLRLSCAASGFTFSNYYMSWVRQAPGKGLEWVSGIYYGSGIPYYANSVKGRFTISRDNSKNTLYLQMNSLRAEDTAVYYCARDTPGFDYWGQGTLVTVSS VL: QSVLTQPPSASGTPGQRVTISCTGSSSNIGNNAVNWYQQLPGTAPKLLIYYDMFRPGGVPDRFSGSKSGTSASLAISGLRSEDEADYYCGAWDYSLSAYVFGGGTKLTVLG , state its measured pKd.
Response line: 10.56

Prompt line: Using the record for #9104a-D2 (antibody, human IgG4 S228P, lambda, V domains shown, VH of #9104v-H11 with VL of #9104v-L64; full-length IgG, lambda) VH: EVQLLESGGGLVQPGGSLRLSCAASGFTFSNYYMSWVRQAPGKGLEWVSGIYYGSGIPYYADSVKERFTISRDNSKNTLYLQMNSLRAEDTAVYYCARDTPGFDYWGQGTLVTVSS VL: QSVLTQPPSASGTPGQRVTISCTGSSSNIGNNAVNWYQQLPGTAPKLLIYYDYFSHSGVPDRFSGSKSGTSASLAISGLRSEDEADYYCGAWDYSLSAYVFGGGTKLTVLG , state its measured pKd.
Response line: 9.83

Prompt line: Using the record for #9104a-E5 (antibody, human IgG4 S228P, lambda, V domains shown, VH of #9104v-H19 with VL of #9104v-L65; full-length IgG, lambda) VH: EVQLLESGGGLVQPGGSLRLSCAASGFTFSNYYMSWVRQAPGKGLEWVSGIYYGSGVPYYADSVKGRFTISRDNSKNTLYLQMNSLRAEDTAVYYCARDTPGFDYWGQGTLVTVSS VL: QSVLTQPPSASGTPGQRVTISCTGSSSNIGNNAVNWYQQLPGTAPKLLIYYDYYQSSGVPDRFSGSKSGTSASLAISGLRSEDEADYYCGAWDYSLSAYVFGGGTKLTVLG , state its measured pKd.
Response line: 9.56
